Each recorded value in this set is attributed to ChEMBL document CHEMBL5038647.

measurement-description: Inhibition of elastase (unknown origin)
Set-up: species or system Homo sapiens
quantity: IC50 (nM)
The figure you give is taken to be in nM; do not add the unit.

Entry `CC(C)(C)C(=O)Oc1ccc(S(=O)(=O)Nc2ccccc2C(=O)NCC(=O)O)cc1` , IC50 reported as 44
